Parameter viability, T/C: see the listing below.
tested on: 991263-137-R1-J2-PDC complex spheroid viability; assay: Anticancer human tumor 991263-137-R1-J2-PDC patient-derived colon adenocarcinoma cell line growth inhibition [POLQ]; details: second compound 10 µM; first compound 0.1 µM; stronger effect = lower value
metric: viability, T/C (%)

- CCCS(=O)(=O)Nc1ccc(F)c(C(=O)c2c[nH]c3ncc(-c4ccc(Cl)cc4)cc23)c1F + Nc1ccc(C#CCN(C(=O)Cc2ncc(C(F)(F)F)cc2C(F)(F)F)c2ccc(F)cc2)nn1: 112
- C#Cc1c(F)ccc2cc(O)cc(-c3ncc4c(N5CC6CCC(C5)N6)nc(OCC56CCCN5CC(F)C6)nc4c3F)c12 (stereo not drawn) + Cc1cccc(N(C)C(=O)C2C(O)CCN2c2nc(C)cc(C(F)(F)F)c2C#N)c1: 102
- COc1cc2cc(C(=O)CCC(=O)O)sc2cc1OC + Cc1cccc(N(C)C(=O)C2C(O)CCN2c2nc(C)cc(C(F)(F)F)c2C#N)c1: 97.5

----------
test system: 991263-137-R1-J2-PDC complex spheroid viability; assay: Anticancer human tumor 991263-137-R1-J2-PDC cell line growth inhibition [POLQ]; details: second compound 10 µM; first compound 0.1 µM; stronger effect = lower value;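 also: spheroids exposed to compounds for 7 days before readout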;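 as to viability, T/C: 100% = DMSO vehicle control viability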
Each item that follows carries a reported viability, T/C.
metric: viability, T/C (%)

• COc1ccc([C@@H](O)c2cc(-c3ncnc4cc(N5CCOCC5)ccc34)c(F)cc2Cl)nn1 + Nc1ccc(C#CCN(C(=O)Cc2ncc(C(F)(F)F)cc2C(F)(F)F)c2ccc(F)cc2)nn1 = 95.6
• CC(C)n1c(=O)n(C)c2cnc3cc(F)c(-c4ccc(OCCCN5CCCCC5)nc4)cc3c21 + Cc1cccc(N(C)C(=O)C2C(O)CCN2c2nc(C)cc(C(F)(F)F)c2C#N)c1 = 104
• CC1COCCN1c1cc(-c2ccnn2C)c2ccnc(-c3ccn[nH]3)c2n1 (stereo not given) + COC1C(OC(N)=O)C(O)C(Oc2ccc3c(O)c(NC(=O)c4ccc(O)c(CC=C(C)C)c4)c(=O)oc3c2C)OC1(C)C = 95
• O=C(c1cc(Cc2n[nH]c(=O)c3ccccc23)ccc1F)N1CCN(C(=O)C2CC2)CC1 + Nc1ccc(C#CCN(C(=O)Cc2ncc(C(F)(F)F)cc2C(F)(F)F)c2ccc(F)cc2)nn1 = 93.6
• CNCc1ccc(-c2[nH]c3cc(F)cc4c3c2CCNC4=O)cc1 + COC1C(OC(N)=O)C(O)C(Oc2ccc3c(O)c(NC(=O)c4ccc(O)c(CC=C(C)C)c4)c(=O)oc3c2C)OC1(C)C = 110

----------
tested on: 991263-137-R1-J2-PDC complex spheroid viability; assay: Anticancer human tumor 991263-137-R1-J2-PDC cell line growth inhibition [POLQ]; conditions: curve of first compound; second compound 0.1 µM;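 also: spheroids exposed to compounds for 7 days before readout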
pIC50: −log10 of the molar value.
metric: pIC50

* CCCS(=O)(=O)Nc1ccc(F)c(C(=O)c2c[nH]c3ncc(-c4ccc(Cl)cc4)cc23)c1F + Cc1cccc(N(C)C(=O)C2C(O)CCN2c2nc(C)cc(C(F)(F)F)c2C#N)c1 | < 5.00
* CC(C)n1c(=O)n(C)c2cnc3cc(F)c(-c4ccc(OCCCN5CCCCC5)nc4)cc3c21 + Cc1cccc(N(C)C(=O)C2C(O)CCN2c2nc(C)cc(C(F)(F)F)c2C#N)c1 | < 5.00
* COc1cccc(OCCCN)c1-c1cc(Nc2cnc(C#N)cn2)n[nH]1 + Cc1cccc(N(C)C(=O)C2C(O)CCN2c2nc(C)cc(C(F)(F)F)c2C#N)c1 | 6.14
